Please provide measured rat MASP2 IC50 for the entries that follow.
TESTED SYSTEM: recombinant rat MASP2 active protease (amino acids 296-685, C-terminal His Tag) (rat, UniProt Q9JJS8 296-685)
Sequence (Q9JJS8 other isoform, or with tags, fused parts or gaps limits assumed): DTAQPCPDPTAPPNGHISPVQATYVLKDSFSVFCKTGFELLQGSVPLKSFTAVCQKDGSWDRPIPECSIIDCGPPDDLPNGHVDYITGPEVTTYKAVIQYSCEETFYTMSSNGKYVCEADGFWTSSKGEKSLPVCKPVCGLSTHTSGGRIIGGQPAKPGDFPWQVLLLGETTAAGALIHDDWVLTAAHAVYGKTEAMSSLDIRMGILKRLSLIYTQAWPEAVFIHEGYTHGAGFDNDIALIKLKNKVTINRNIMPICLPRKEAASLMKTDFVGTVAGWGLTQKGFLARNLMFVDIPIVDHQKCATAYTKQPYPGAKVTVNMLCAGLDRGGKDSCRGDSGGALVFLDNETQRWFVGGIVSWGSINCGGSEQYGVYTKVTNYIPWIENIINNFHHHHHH
PROTOCOL TEXT: cell-based or functional assay
Bridge positions count the residues as written; N and C are the ends. Square brackets hold non-standard residues; d marks the D form. Ends that are not written are not given here. Oic = O=C(O)[C@@H]1C[C@@H]2CCCC[C@@H]2N1; tBuAla = CC(C)(C)C[C@H](N)C(=O)O; Pen = CC(C)(S)[C@H](N)C(=O)O; Tranexamic = tranexamic acid; Ac4c = NC1(C(=O)O)CCC1; Sar = CNCC(=O)O
Numbers only, in nM.

Consider the reported rat MASP2 IC50 for these binders:
BINDER	RESULT VALUE
[Sar]ICSRSLP[Oic]I[Pen]IP-NH2 (disulfide 3-11; N-terminus assumed; SMILES CC[C@H](C)[C@H](NC(=O)CNC)C(=O)N[C@H]1CSSC(C)(C)[C@@H](C(=O)N[C@H](C(=O)N2CCC[C@H]2C(N)=O)[C@@H](C)CC)NC(=O)[C@H]([C@@H](C)CC)NC(=O)[C@@H]2C[C@@H]3CCCC[C@@H]3N2C(=O)[C@@H]2CCCN2C(=O)[C@H](CC(C)C)NC(=O)[C@H](CO)NC(=O)[C@H](CCCNC(=N)N)NC(=O)[C@H](CO)NC1=O) [Example 109: ((N-Me)G)-IC+SRSLP-(Oic)-I-(Pen)+IP-NH2]	42
AICSRS[tBuAla]PPI[Pen]IP[Tranexamic]-NH2 (disulfide 3-11) [Example 171: AIC+SRS-((tBu)A)-PPI-(Pen)+IP-(Tranexamic)-NH2]	21

Request: Given the binder [Ac4c]ICSRS[tBuAla]PPI[Pen]I-NH2 (disulfide 3-11; N-terminus assumed; SMILES CC[C@H](C)[C@H](NC(=O)[C@H]1NC(=O)[C@H]([C@@H](C)CC)NC(=O)[C@@H]2CCCN2C(=O)[C@@H]2CCCN2C(=O)[C@H](CC(C)(C)C)NC(=O)[C@H](CO)NC(=O)[C@H](CCCNC(=N)N)NC(=O)[C@H](CO)NC(=O)[C@@H](NC(=O)[C@@H](NC(=O)C2(N)CCC2)[C@@H](C)CC)CSSC1(C)C)C(N)=O) [Example 208: (ACBA)-IC+SRS-((tBu)A)-PPI-(Pen)+I-NH2] , write its reported rat MASP2 IC50.
Response: 8.6

All values here come from patent US20210246166A1.
